So I've got a bunch of molecules here, and I need their lowest phenotypically active concentration values.
Tested on: A549-GM130-SQSTM1
ASSAY: lowest phenotypically active concentration; higher = less potent
CONDITION: treatment time: 24 h
Counter-ions that a name gives are not always drawn.
Number only, in µM; omit the unit.

For the molecule Cc1ccc(NC(=O)c2ccc(CN3CCN(C)CC3)cc2)cc1Nc1nc(-c2cccnc2)cs1 [masitinib] , the measured lowest phenotypically active concentration on A549-GM130-SQSTM1 was 3

For the molecule CCCc1cc(C)n(C)c(=O)c1CN(C)C(=O)c1cc(-c2ccc(N3CCN(C(C)C)CC3)nc2)cc2c1cnn2C(C)C , the measured lowest phenotypically active concentration on A549-GM130-SQSTM1 was 3

For the molecule O=C(Nc1cccnc1)N1CCC(Cc2cccc(Oc3ccc(C(F)(F)F)cn3)c2)CC1 , the measured lowest phenotypically active concentration on A549-GM130-SQSTM1 was 3

For the molecule Nc1nccc2c1ncn2[C@@H]1C=C(CO)[C@@H](O)[C@H]1O [3-Deazaneplanocin A hydrochloride] , the measured lowest phenotypically active concentration on A549-GM130-SQSTM1 was 3

For the molecule N#C/C(=C/c1ccc(O)c(O)c1)C(=O)NCCCCc1ccccc1 , the measured lowest phenotypically active concentration on A549-GM130-SQSTM1 was 9
